Give measured OD值 (450nm, 参考630nm) for each item. Keep answers brief.
Target: 肺炎支原体天然抗原(购自Microbix) (Mycoplasma pneumoniae)
Experiment: indirect ELISA on coated antigen (2 ug/ml), antibody 12.35 ng/ml

Qu. Which OD值 (450nm, 参考630nm) reading was recorded for the binder Anti-MP-11F5mut6 (antibody, mouse IgG1, kappa, V domains shown) VH: QVQLQQSGPELVKPGALVKISCKASGYTFTSFDINWVKQRPGQGLEWIGYIYPGDGSTKYNEKFKGKATLTADKSSSTAYMQFSSLTSEDSAVYFCTRKGGWGAGHSAMDYWGQGTSVTVSS VL: DIQMTQTTSSLSASLGDRVTISCRASQAISNYINWYQQRPDGTVKLLIYYTSRKNSGAPSRFSGSGSGTDYSLTISNLDQEDIATYFCQQGYTTPYTFGGGTKLEIKR ?
Ans. 1.92 OD

Qu. How about this binder: Anti-MP-11F5mut4 (antibody, mouse IgG1, kappa, V domains shown) VH: QVQLQQSGPELVKPGALVKISCKASGYTFTSFDINWVKQRPGQGLEWIGYIYPGDGSTKYNEKFKGKATLTADKSSSTAYMQFSSLTSENSAVYFCTRKGGWGAGHSAMDYWGQGTSVTVSS VL: DIQMTQTTSSLSASLGDRVTISCRASQAISNYINWYQQRPDGTVKLLIYYTSRKNSGAPSRFSGSGSGTDYSLTISNLDQEDIATYFCQQGYTTPYTFGGGTKLEIKR
Ans. 1.96 OD

Qu. How about this binder: Anti-MP-11F5mut1 (antibody, mouse IgG1, kappa, V domains shown) VH: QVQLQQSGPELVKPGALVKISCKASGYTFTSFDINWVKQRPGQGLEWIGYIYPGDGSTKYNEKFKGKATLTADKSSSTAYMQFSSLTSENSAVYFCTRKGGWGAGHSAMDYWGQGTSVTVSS VL: DIQMTQTTSSLSASLGDRVTISCRASQAIGNYLNWYQQRPDGTVKLLIYYTSRKNSGAPSRFSGSGSGTDYSITISNLDQEDIATYFCQQGYTTPYTFGGGTKLEIKR
Ans. 1.89 OD

Source listed as patent CN116693678A.
